Taken from patent US20150147342A1.

- target of assay: T1, Dimeric fibrinogen-like domain of monkey (Macca fascicularis) Ang-2 conjugated to human IgG1 (monkey (Macca fascicularis))
- T1 construct: also called Dimeric Monkey Ang-2FD; Monkey Ang-2FD-hFc
- T1 sequence (chain, as listed by the source limits assumed): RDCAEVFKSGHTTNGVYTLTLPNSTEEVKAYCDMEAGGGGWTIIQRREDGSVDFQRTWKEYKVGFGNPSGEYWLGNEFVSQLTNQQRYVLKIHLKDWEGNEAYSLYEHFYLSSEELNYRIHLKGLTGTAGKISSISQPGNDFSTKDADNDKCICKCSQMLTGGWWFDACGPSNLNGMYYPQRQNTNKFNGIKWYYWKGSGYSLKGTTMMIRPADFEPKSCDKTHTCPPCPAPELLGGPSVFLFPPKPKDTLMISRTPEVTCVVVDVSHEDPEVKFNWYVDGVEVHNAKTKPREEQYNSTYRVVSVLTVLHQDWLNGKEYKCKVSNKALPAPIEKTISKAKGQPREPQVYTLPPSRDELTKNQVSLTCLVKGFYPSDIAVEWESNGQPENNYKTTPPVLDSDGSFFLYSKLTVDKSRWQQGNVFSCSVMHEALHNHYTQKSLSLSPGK
- experiment: SPR, hIgG1 antibody captured, room temp
- Excerpt: Antibody was captured on a goat anti-mouse IgG polyclonal antibody surface, a goat anti-human κ polyclonal antibody (Southern Biotech, Birmingham, Ala.) surface or a goat anti-human IgG polyclonal antibody (Jackson Immuno Research Lab, West Grove, Pa.) surface created through direct amine coupling to a BIACORE™ CM5 sensor chip to form a captured antibody surface. […] Antigen-antibody binding and dissociation were monitored in real time at room temperature. […]
readout: T1/2

Value of measured T1/2 for the entry H1H749N (antibody, V domains shown) VH: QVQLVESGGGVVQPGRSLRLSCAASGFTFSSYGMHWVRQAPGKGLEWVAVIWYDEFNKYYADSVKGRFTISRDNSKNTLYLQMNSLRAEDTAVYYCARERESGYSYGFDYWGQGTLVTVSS VL: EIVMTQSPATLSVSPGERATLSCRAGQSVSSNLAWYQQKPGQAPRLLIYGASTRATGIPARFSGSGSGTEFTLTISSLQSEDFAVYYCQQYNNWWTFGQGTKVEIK : 2.38 h

Value of measured T1/2 for the entry H1H706P (antibody, V domains shown) VH: QVQLVESGGGVVQPGRSLRLSCAASGFTFSSYGMHWVRQAPDKGLEWVAVKWDDGSNKYYADSVKGRFTISRDNSKNTLYLQMNSLRAEDTAVYYCAREGPYDFYSGYGAFDIWGQGTMVTVSS VL: DIQMTQSPSSLSASVGDRVTITCRASQGISNYLAWFQQKPGKAPKSLIYAASSLQSGVPSKFSGSGSGTDFTLTISSLQPEDFATYYCQQYNSYPRTFGQGTKVEIK : 0.888 h

Let us examine a further case.
Value of measured T1/2 for the entry H1H695P (antibody, V domains shown) VH: QVQLVESGGGVVQPGRSLRLSCAASGFTFSSYGMHWVRQAPGKGLEWVAVMWYDETNKYYADSVKGRFTISRDNSKNTLYLQMNSLRAEDTAVYYCARYSGYEDYYHGMDVWGQGTTVTVS VL: EIVMTQSPATPSVSPGERATLSCRASQSISSNLAWYQQKPGQAPRLLIYGASTRATGIPARFSGSGSGTEFTLTISSLQSEDFAVYYCQHYNNWITFGQGTRLEIK : 1.4 h
